measured-property: melting point

The molecule identified as Cc1cnc2ccc(OC(c3ccc(Br)cn3)c3ncco3)cc2c1 (stereo not drawn) registered its melting point at 136 to 139 °C

Note to self: melting point recorded for Fc1ccc(C(Oc2cc(/C=C/C(F)(F)F)c3ncccc3c2)c2nnco2)nc1 (stereo not drawn) was 147 to 150 °C

melting point for Fc1ccc(C(Oc2ccc3ncccc3c2)c2ncco2)nc1 (stereo not drawn) is 104 to 110 °C

get_value(item= Cc1cc(C(Oc2ccc3ncccc3c2)c2ccccc2)no1 (stereo not drawn) , readout=melting point) returns 108 to 110 °C

Data point: CCO/N=C/c1cnc2ccc(OC(c3ccc(F)cn3)c3nnco3)cc2c1 (stereo not drawn) ; melting point = 130 to 133 °C

Next up:
# melting point (molecule: c1ccc(C(Oc2cnc3ccccc3c2)c2nnco2)cc1 (stereo not drawn) ) is 108 to 110 °C

----------
measured-property: melting point

Consider the following illustrative entries.
The compound identified as CO/N=C/c1cnc2ccc(O[C@@H](c3ccc(F)cn3)c3nnco3)cc2c1 registered its melting point at 136 to 137 °C

Field melting point (entry CCO/N=C/c1cc(OC(c2ccc(F)cn2)c2nnco2)cc2cccnc12 (stereo not drawn) ) reads 182 to 184 °C

Input Brc1cnc2ccc(OC(c3ccccc3)c3ncco3)cc2c1 (stereo not drawn) . Output melting point: 136 to 137 °C

The compound listed as c1ccc(C(Oc2ccc3ncccc3c2)c2ncon2)cc1 (stereo not drawn) has a reported melting point of 138 to 140 °C

Lookup result for c1ccc(C(Oc2ccc3ncccc3c2)c2ccccn2)cc1 (stereo not drawn) ; measured melting point: 71 to 73 °C

Now look at this one.
Per the record, Fc1ccc(C(Oc2ccc3ncc(/C=N/OCC(F)(F)F)cc3c2)c2nnco2)nc1 (stereo not drawn) has melting point of 118 to 120 °C

----------
measured-property: melting point

Worked cases, melting point given:
Per the records, this compound ( Fc1ccc(C(Oc2cccc3ncccc23)c2nnco2)nc1 (stereo not drawn) ) has melting point equal to 198 to 200 °C

response.value for CO/N=C/c1cnc2ccc(OC(c3ccc(F)cn3)c3nnco3)c(Br)c2c1 (stereo not drawn) (field: melting point) = 172 to 173 °C

Looking up c1ccc(C(Oc2ccc3ncccc3c2)c2ccon2)cc1 (stereo not drawn) , I see its melting point listed as 126 to 128 °C

compound CC(C)(O)c1coc(C(Oc2ccc3ncccc3c2)c2ccccc2)n1 (stereo not drawn) , melting point observed: 130 to 134 °C

melting point measured on Clc1ccc(C(Nc2ccc3ncc(Br)cc3c2)c2nnco2)nc1 (stereo not drawn) = 214 to 217 °C

Please find the next compound below.
GET /value?item= CO/N=C/c1cnc2ccc(O[C@H](c3ccc(F)cn3)c3nnco3)cc2c1 &field=melting point returns 136 to 138 °C

----------
measured-property: melting point

Some molecules with known melting point results, for comparison:
// [O-][n+]1cc(F)ccc1C(Oc1ccc2c(ccc[n+]2[O-])c1)c1nnco1 (stereo not drawn) : melting point value = 224 to 226 °C

Kindly note the recorded melting point for c1ccc(C(Oc2ccc3nccnc3c2)c2nnco2)cc1 (stereo not drawn) , which is 155 to 157 °C

Pending molecule:
Looking up c1ccc(C(Oc2ccc3ncccc3c2)c2ccco2)cc1 (stereo not drawn) , I found its melting point recorded as 215 °C (dec.)

The reported measurements were obtained from patent US20200275661A1.
